Source listed as ChEMBL document CHEMBL1201862.

- System: NCI-H23
- ASSAY_NOTES: NCI tumour cell line growth inhibition, 48 h
Activity calls are given as the source filed them. Rule as the data show it: active = GI50 up to about 1.1 µM and inactive = higher.
Please respond with reported GI50 for every item in the list.

Give one value of GI50 per listed compound.
1. COc1ccc(-c2cc(C(=O)Nc3cc(C(F)(F)F)cc(C(F)(F)F)c3)c3ccccc3n2)cc1
2. COc1ccc2nc3c(C)cc4ccccc4n3c2c1
3. COc1cc(-c2cc(-c3cc([N+](=O)[O-])c(/C=N/NC(=O)c4ccncc4)o3)ccc2OC)ccc1C
4. COc1cc(Br)cc2cc(-c3cn4c(n3)sc3ccccc34)c(=O)oc12
5. Cc1ccccc1/N=N/c1c(O)ccc2ccccc12

Ans:
5.9 µM (inactive)
> 100 µM (inactive)
> 100 µM (inactive)
21.2 µM (inactive)
> 100 µM (inactive)

###

- Tested on: OVCAR-5
- ASSAY_NOTES: NCI tumour cell line growth inhibition, 48 h
Calls of active or inactive are those of the source. No stated cut-off is given here; in the data, active = GI50 up to about 1.1 µM and inactive = higher.
Please respond with reported GI50 for every item in the list.

[[record]]
compound = "Cc1c(C)c(C)c(-n2[nH]c(=O)n(C)c2=O)c(C)c1C"
result = "> 100 µM (inactive)"

[[record]]
compound = "Cc1cc2sc(C)[n+](CCCOS(=O)(=O)[O-])c2cc1C"
result = "> 100 µM (inactive)"

[[record]]
compound = "CCOC(=O)CCCNC(=O)CCCCC(=O)N(C)C"
result = "> 100 µM (inactive)"


Give one value of GI50 per listed compound.
1. [N-]=[N+]=NC1C2CC3C4CC5CC3[C@H](C2)C(C5)C41 (stereo partly drawn)
2. COc1cc2c(oc(=O)c3c4oc([Si](C)(C)C)cc4cc(OC)c23)c2cccc(OCc3ccccc3)c12
3. O[C@H]1[C@H](O)[C@@H](O)[C@H](O)[C@@H](O)[C@H]1O [INOSITOL]
4. C=CSCCC(N)C(=O)O (stereo not drawn)
5. CS(=O)(=O)OCCN1CCN(C(=O)c2cccc3c(Nc4ccc(S(N)(=O)=O)cc4)c4ccccc4nc23)CC1
6. CC12CCC(=O)N1c1cnccc1N2 (stereo not drawn)
7. CC1(C)OC[C@H](C(=N)OCc2ccccc2)O1
8. CCc1cccc(C(C)C)c1NC(=O)/C(=N\NC(N)=O)C(C(=O)OC)c1cnc2ccccc2n1 (stereo not drawn)

Ans:
> 100 µM (inactive)
> 70.3 µM (inactive)
> 1000 µM (inactive)
> 100 µM (inactive)
> 100 µM (inactive)
> 100 µM (inactive)
> 100 µM (inactive)
> 100 µM (inactive)

###

The following molecules have recorded GI50 on HCT-15.

Example cases with answers are listed next.
[[record]]
molecule = "O=[N+]([O-])c1ccc(C2=Nc3ccccc3[S+]([O-])C(c3ccccc3)C2)cc1 (stereo unspecified)"
tested_system = "HCT-15"
parameter = "GI50"
result = "27 µM"

[[record]]
molecule = "COc1cccc(-c2nc(-c3cnccn3)n(C/C=C/c3ccccc3)n2)c1"
tested_system = "HCT-15"
parameter = "GI50"
result = "> 10 µM"

[[record]]
molecule = "CCCCN/C(=N/C#N)NCc1ccccc1"
tested_system = "HCT-15"
parameter = "GI50"
result = "> 100 µM"

[[record]]
molecule = "O=C1[C@H]2ON(c3ccccc3)C(c3ccco3)[C@H]2C(=O)N1c1ccc(Cc2ccc(N3C(=O)[C@@H]4ON(c5ccccc5)C(c5ccco5)[C@@H]4C3=O)cc2)cc1 (stereo partly specified)"
tested_system = "HCT-15"
parameter = "GI50"
result = "> 100 µM"

[[record]]
molecule = "COc1ccc(-c2cc(=O)c3c(O)c(OC)c(OC)c(OC)c3o2)cc1 [GARDENIN B]"
tested_system = "HCT-15"
parameter = "GI50"
result = "2.37 µM"


Give one value of GI50 per listed molecule.
1. C=C(C)[C@@H]1CC[C@]2(C(=O)O)CC[C@]3(C)[C@H](CC[C@@H]4[C@@]5(C)CC[C@H](O)C(C)(C)[C@@H]5CC[C@]43C)[C@@H]12 [BETULINIC ACID]
2. COc1ccc2c(c1)OC[C@@H]1c3cc4c(cc3O[C@H]21)OCO4
3. CC(C)OP(=O)(OC(C)C)/C(N)=N/Nc1ccc([N+](=O)[O-])cc1
4. CC(=O)OCC1OC(SC2=NC(=O)/C(=C/c3ccccc3)S2)C(OC(C)=O)C(OC(C)=O)C1OC(C)=O (stereo unspecified)
5. Cc1cc(Cl)ccc1NC(=O)C(=O)Cc1nc2ccccc2o1
6. Cn1nc2ccc(Nc3cc(=O)[nH]c4ccc5nn(C)nc5c34)cc2n1

Ans:
1: 8.67 µM; 2: > 100 µM; 3: > 100 µM; 4: 59 µM; 5: > 100 µM; 6: > 100 µM

###

- Test system: KM-20L2
- ASSAY_NOTES: NCI tumour cell line growth inhibition, 48 h
Calls of active or inactive are those of the source. Rule as the data show it: active = GI50 up to about 1.1 µM and inactive = higher.
Please respond with reported GI50 for every item in the list.

[[record]]
compound = "c1ccc(P(=C2c3ccccc3-c3ccccc32)(c2ccccc2)c2ccccc2)cc1"
parameter = "GI50"
result = "2.56 µM (inactive)"

[[record]]
compound = "O=c1cc(-c2ccc(O)cc2)oc2cc(O)cc(O)c12"
parameter = "GI50"
result = "28.8 µM (inactive)"


Give one value of GI50 per listed compound.
1. COC(=O)C1=C(c2ccc3c(c2)OCO3)OC(c2cc(OC)c(OC)c(OC)c2)C1 (centres undefined)
2. CC1(C)OC[C@H](C(=N)OCc2ccccc2)O1

Ans:
1: 1.57 µM (inactive); 2: > 100 µM (inactive)

###

- Test system: MOLT-4
- ASSAY_NOTES: NCI tumour cell line growth inhibition, 48 h
The source made the active and inactive calls. Cut-off read from the data, not from the text of the source: active = GI50 up to about 1.1 µM and inactive = higher.
Assign a class; possible classes are active, inactive

Consider the following illustrative entries.
[[record]]
compound = "CCOC(=O)Cn1c(=O)[nH]c(=O)c2[nH]cnc21"
tested_system = "MOLT-4"
category = "inactive"

[[record]]
compound = "COc1cccc(C2c3cc4c(cc3OC(N3CCCC3)C2C)OCO4)c1O (stereo not drawn)"
tested_system = "MOLT-4"
category = "inactive"

[[record]]
compound = "CC(=O)NC1C(OCc2ccccc2)OC(CO)C(O)C1OC(C)C(=O)NC(C)C(=O)NC(CCC(=O)NCCCCNc1c2ccccc2nc2cccc([N+](=O)[O-])c12)C(N)=O (stereo not drawn)"
tested_system = "MOLT-4"
category = "active"

[[record]]
compound = "CN(C)/C=N/C1CCC(C(C)(C)C)CC1 (stereo not drawn)"
tested_system = "MOLT-4"
category = "inactive"

[[record]]
compound = "O=C(O)CN(CC(=O)O)Cc1cc2c(cc1O)Oc1cc(O)c(CN(CC(=O)O)CC(=O)O)cc1C21OC(=O)c2ccccc21"
tested_system = "MOLT-4"
category = "inactive"


Could you now look at the following compound, please?
Q: Dear all, I need the recorded test outcome for CC(C(=O)ON1C(=O)CCC1=O)c1ccc(C(=O)c2ccccc2)s1 (stereo not drawn) , thank you.
Ans: inactive

###

Please respond with reported GI50 for every item in the list.
- System: TK-10
- ASSAY_NOTES: NCI tumour cell line growth inhibition, 48 h
Calls of active or inactive are those of the source. Cut-off read from the data, not from the text of the source: active = GI50 up to about 1.1 µM and inactive = higher.

Example cases with answers are listed next.
[[record]]
compound = "O=C1c2ccccc2C(=O)N1C/C=N/NS(=O)(=O)c1ccc(Br)cc1"
tested_system = "TK-10"
result = "> 100 µM (inactive)"

[[record]]
compound = "COc1ccc(-c2cc(=O)c3c(O)c(OC)c(OC)c(OC)c3o2)cc1"
tested_system = "TK-10"
result = "26.2 µM (inactive)"

[[record]]
compound = "C#CCNC(CCCNC(=N)N)C(=O)O (stereo not given)"
tested_system = "TK-10"
result = "> 100 µM (inactive)"

[[record]]
compound = "O=CN/C=C/c1ccc(O)c(O)c1"
tested_system = "TK-10"
result = "> 100 µM (inactive)"

[[record]]
compound = "CN(C)/C=N/C1CCC(C(C)(C)C)CC1 (stereo not given)"
tested_system = "TK-10"
result = "21.8 µM (inactive)"


Give one value of GI50 per listed compound.
1. COC(=O)[C@H]1ON2O[C@H](OC3CCCC[C@@H]3c3ccccc3)C[C@@H]3CC[C@H]1[C@@]32C (stereo not given in full)
2. Cn1nc2ccc(Nc3cc(=O)[nH]c4ccc5nn(C)nc5c34)cc2n1
3. O=C(c1ccccc1)c1ccc2cccc(O)c2n1
4. COc1cc(C2S/C(=C/c3ccccc3)C(=O)N2c2cc(Cl)c(Cl)cc2Cl)cc(OC)c1OC (stereo not given)

Ans:
1: > 100 µM (inactive); 2: > 100 µM (inactive); 3: 94.8 µM (inactive); 4: > 69.3 µM (inactive)

Give one value of GI50 per listed compound.
1. CCCN(CCC)C(=O)c1nc(N)nc(-c2ccc(OC)cc2)c1-c1ccc(OC)cc1
2. CO[C@@H]1C=C[C@@]23c4cc5c(cc4C(O)N(CC2O)C3C1)OCO5 (stereo not given in full)
3. Cc1cc2sc(C)[n+](CCCOS(=O)(=O)[O-])c2cc1C
4. CCOC(=O)C1=C(C#N)S(=O)(=O)c2c(oc(C)c2C)N1
5. CC(C(=O)ON1C(=O)CCC1=O)c1ccc(C(=O)c2ccccc2)s1 (stereo not given)
6. COc1ccc(C(=O)c2ccc(-n3c4ccccc4c4ccc5c(c43)C(=O)C=CC5=O)cc2)cc1

Ans:
["> 100 µM (inactive)", "4.19 µM (inactive)", "> 100 µM (inactive)", "> 100 µM (inactive)", "> 100 µM (inactive)", "1.43 µM (inactive)"]
